Reference source for all entries: the supplement of paper PMC7877785

- experimentalProtocol: self-splicing fitness, log relative to wild type (ln ratio); higher = more splicing; Tetrahymena group I intron in knt gene, E. coli kanamycin selection, DiMSum; sequences stand for … in CUCUCU…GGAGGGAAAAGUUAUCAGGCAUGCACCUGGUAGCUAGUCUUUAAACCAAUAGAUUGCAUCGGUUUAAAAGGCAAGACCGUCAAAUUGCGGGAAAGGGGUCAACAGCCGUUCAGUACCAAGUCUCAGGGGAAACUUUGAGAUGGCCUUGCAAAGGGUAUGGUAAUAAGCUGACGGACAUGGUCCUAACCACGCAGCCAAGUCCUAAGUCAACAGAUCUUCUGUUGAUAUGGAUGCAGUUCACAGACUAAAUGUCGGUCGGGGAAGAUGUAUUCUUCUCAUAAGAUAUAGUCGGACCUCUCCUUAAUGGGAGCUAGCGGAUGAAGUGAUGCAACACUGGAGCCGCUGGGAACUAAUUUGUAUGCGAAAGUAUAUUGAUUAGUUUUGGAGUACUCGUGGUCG;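 also: selection with 25 µg/mL kanamycin versus none on LB agar overnight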
- testSettings: 37 °C
measuredEndpoint: self-splicing fitness (ln)

Sample answers from the record:
itemSequence	self-splicing fitness (ln)
UAUAAGCAAUAUUACGCUGU	-3.32
CAUUAGCAAUAUUACGUUCG	0.359
UCUUAGCAAUAUUACGAGGA	-1.58
CGCGAGCAAUAUUACGUACC	-2.69
ACUGAGCAAUAUUACGGAUG	-1.67

Reported self-splicing fitness (ln) for UUGAAGCAAUAUUACGAUUG was 0.272

// ACCAAGCAAUAUUACGCGAG : self-splicing fitness (ln) value = -1.27

// field: self-splicing fitness (ln); key: UAGAAGCAAUAUUACGUGGU ; value = -2.54
